The measurements presented in this section are drawn from ChEMBL document CHEMBL1134553.

Biological target: Sodium-dependent serotonin transporter (Homo sapiens, UniProt P31645)
Sequence (P31645 whole entry): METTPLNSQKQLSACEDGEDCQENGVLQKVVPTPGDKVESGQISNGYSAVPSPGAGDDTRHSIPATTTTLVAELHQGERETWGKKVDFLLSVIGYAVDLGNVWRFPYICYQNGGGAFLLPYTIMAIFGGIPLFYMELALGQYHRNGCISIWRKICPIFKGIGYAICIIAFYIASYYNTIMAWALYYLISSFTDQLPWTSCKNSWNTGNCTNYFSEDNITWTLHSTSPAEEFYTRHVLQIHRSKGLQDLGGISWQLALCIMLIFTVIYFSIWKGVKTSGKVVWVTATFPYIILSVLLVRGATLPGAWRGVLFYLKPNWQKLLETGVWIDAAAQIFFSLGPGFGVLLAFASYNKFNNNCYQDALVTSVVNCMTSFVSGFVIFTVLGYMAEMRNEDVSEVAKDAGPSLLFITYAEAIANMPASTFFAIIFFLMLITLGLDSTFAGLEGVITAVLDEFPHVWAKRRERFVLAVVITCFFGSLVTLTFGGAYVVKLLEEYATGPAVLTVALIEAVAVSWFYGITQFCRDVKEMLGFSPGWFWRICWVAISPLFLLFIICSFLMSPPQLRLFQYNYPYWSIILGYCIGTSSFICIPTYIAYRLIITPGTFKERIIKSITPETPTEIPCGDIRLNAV
Assay: Inhibition of [3H]citalopram binding to the serotonin transporter in rhesus (Macaca mulatta) or cynomolgus monkey (Macaca fascicularis) caudate-putamen.
Type: tissue-based, Cercopithecidae
Settings: target entry is the homologue from another species
metric name: IC50 (nM)
API: value field is a number in nM; no unit string.

Below, 3 compounds whose answers are already recorded.
COC(=O)C1C(c2ccc(Cl)c(Cl)c2)CC2C[C@@H](O)C1N2C (stereo in doubt; 18a)    1390
COC(=O)C1C(c2ccc3ccccc3c2)CC2C[C@@H](O)C1N2C (stereo in doubt; 18b)    94
COC(=O)C1C(OC(c2ccc(F)cc2)c2ccc(F)cc2)CC2[C@@H](O)CC1N2C (some centres undefined)    4850

input: Recall the recorded IC50 for COC(=O)C1C(c2ccc(Cl)c(Cl)c2)CC2C[C@H](O)C1N2C (some centres undefined) with Sodium-dependent serotonin transporter (Homo sapiens, UniProt P31645) and state it.
output: 991

input: Find IC50 (Sodium-dependent serotonin transporter (Homo sapiens, UniProt P31645)) for the entry COC(=O)[C@H]1C2C(=O)CC(C[C@H]1c1ccc(Cl)c(Cl)c1)N2C (some centres undefined)
output: 7040

input: Lab note: need IC50 with Sodium-dependent serotonin transporter (Homo sapiens, UniProt P31645) for entry COC(=O)C1C(c2ccc(Cl)c(Cl)c2)CC2[C@@H](O)CC1N2C (stereo in doubt; 17a) , please look it up.
output: 1450

input: Lab request: please report IC50 under test system Sodium-dependent serotonin transporter (Homo sapiens, UniProt P31645) for COC(=O)C1=C(c2ccccc2)CC2CCC1N2C (centres undefined)
output: 28600

input: Quick check: IC50 on Sodium-dependent serotonin transporter (Homo sapiens, UniProt P31645), item COC(=O)C1C(c2ccc(Cl)c(Cl)c2)CC2C[C@@H](O)C1N2C (stereo in doubt; 33) ?
output: 533

input: Please state recorded IC50 (tested on Sodium-dependent serotonin transporter (Homo sapiens, UniProt P31645)) of COC(=O)[C@H]1[C@@H](c2ccc(F)cc2)C[C@H]2CC[C@H]1N2C (stereo in doubt; 16c)
output: 1130

input: Notebook entry, Sodium-dependent serotonin transporter (Homo sapiens, UniProt P31645) assay: IC50 of COC(=O)C1=C(c2ccc(Cl)c(Cl)c2)CC2[C@@H](O)CC1N2C (some centres undefined) = ?
output: 3320

input: Param readout = IC50; param system = Sodium-dependent serotonin transporter (Homo sapiens, UniProt P31645); param query = COC(=O)C1C(c2ccc(Cl)c(Cl)c2)CC2[C@@H](O)CC1N2C (stereo in doubt; 14a) ; response: value
output: 166

input: Field: IC50 (Sodium-dependent serotonin transporter (Homo sapiens, UniProt P31645)). Entry: COC(=O)C1C(c2ccc(Cl)c(Cl)c2)CC2C[C@@H](O)C1N2C (stereo in doubt; 15a)
output: 27.7
